target-or-test-system: cIAP2-BIR3 Protein (Homo sapiens (Human), UniProt Q13489)
Sequence (Q13489 238-349): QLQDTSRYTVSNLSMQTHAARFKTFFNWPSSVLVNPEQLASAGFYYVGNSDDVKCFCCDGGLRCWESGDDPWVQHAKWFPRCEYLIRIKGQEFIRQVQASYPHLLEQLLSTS
run-description: Fluorescence polarization affinity of compounds to cIAP2-BIR3
test-context: cIAP2-BIR3 60 nM; 5 nM ARPFAQ-K(5-FAM)-NH2 probe; FP; pH 7.5; read-out: affinity to target protein in vitro, cIAP2-BIR3 Protein (IC50)

>  <chem-smiles>
CC[C@H](NC(=O)[C@H](C)NC)C(=O)N1CC(F)(F)C[C@H]1Cc1c(-c2nc3cc(F)ccc3n2C[C@@H]2CC(F)(F)CN2C(=O)[C@@H](NC(=O)[C@H](C)NC)C(C)C)[nH]c2cc(F)ccc12

>  <IC50>
10 to 100 nM

$$$$
>  <chem-smiles>
CN[C@@H](C)C(=O)N[C@H](C(=O)N1C[C@@H](F)C[C@H]1Cc1c(-c2nc3cc(F)ccc3n2C[C@@H]2C[C@H](F)CN2C(=O)[C@@H](NC(=O)[C@H](C)NC)C2CCC2)[nH]c2cc(F)ccc12)C1CCC1

>  <IC50>
10 to 100 nM

$$$$
>  <chem-smiles>
CN[C@@H](C)C(=O)N[C@H](C(=O)N1C[C@@H](F)C[C@H]1Cc1c(-c2nc3cc(F)ccc3n2C[C@@H]2C[C@H](F)CN2C(=O)[C@@H](NC(=O)[C@H](C)NC)C2CC2)[nH]c2cc(F)ccc12)C1CCCCC1

>  <IC50>
< 10 nM

$$$$
>  <chem-smiles>
CC[C@H](NC(=O)[C@H](C)NC)C(=O)N1C[C@@H](F)C[C@H]1Cn1c(-c2[nH]c3cc(F)ccc3c2C[C@@H]2C[C@H](F)CN2C(=O)[C@@H](NC(=O)[C@H](C)NC)C2CCCCC2)nc2cc(F)ccc21

>  <IC50>
< 10 nM

$$$$
